procedure_details: Clearance in mouse at 1 mg/kg, iv and 2 mg/kg, po
Assay type: ADME, organism-based
stated_conditions: in vivo
reported_metric: clearance (mL/min/kg)

>>> number("O=C(CCc1cnn(-c2ccc(O)cn2)c1)NC1=C(C(=O)O)CCCC1")
1.2
>>> number("Cc1c(CC(C)C(=O)NC2=C(C(=O)O)CCCC2)cnn1-c1ccc(O)cc1 (stereo not drawn)")
3.5
>>> number("O=C(CCc1cnn(-c2ccc(O)cc2)c1)Nc1ccccc1C(=O)O")
17
